# Assay name: Binding affinity at VGCC
pKi: −log10 of the molar value.
Observation type: pKi

Worked examples, 2 compounds total:
>  <Compound>
CCOC(=O)C1=C(C)N=C(C)/C(=C(/O)OCC)C1c1c(C)noc1CCc1cccc2ccccc12 (centres undefined)

>  <pKi>
8.39

$$$$
>  <Compound>
CCOC(=O)C1=C(C)N=C(C)/C(=C(/O)OCC)C1c1c(-c2ccccc2)noc1CCc1ccccc1 (centres undefined)

>  <pKi>
7.26

$$$$

[1] CCOC(=O)C1=C(C)N=C(C)/C(=C(/O)OCC)C1c1c(C)noc1CCc1ccc(-c2ccccc2)cc1 (centres undefined)
[2] CCOC(=O)C1=C(C)N=C(C)/C(=C(/O)OCC)C1c1c(-c2ccccc2)noc1C (centres undefined)
Q: Field: entry with larger pKi (options 1 / 2 ). Returns: label corresponding to the selected item.
A: 1
